Target: Mu-type opioid receptor (Rattus norvegicus)
Sequence (P33535 whole entry): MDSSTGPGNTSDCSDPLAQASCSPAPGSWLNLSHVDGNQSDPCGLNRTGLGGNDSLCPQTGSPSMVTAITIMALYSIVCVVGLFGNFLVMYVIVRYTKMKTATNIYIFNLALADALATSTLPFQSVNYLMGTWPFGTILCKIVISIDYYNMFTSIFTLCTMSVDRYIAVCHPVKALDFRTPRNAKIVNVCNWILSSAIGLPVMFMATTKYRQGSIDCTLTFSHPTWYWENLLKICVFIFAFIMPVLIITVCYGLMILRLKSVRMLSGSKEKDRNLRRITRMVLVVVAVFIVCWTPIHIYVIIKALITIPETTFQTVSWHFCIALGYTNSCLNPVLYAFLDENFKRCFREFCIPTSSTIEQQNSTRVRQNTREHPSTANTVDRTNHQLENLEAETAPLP
Experiment: Binding affinity towards mu opioid receptor by displacement of [3H]NAL from rat brain homogenates
Assay type: tissue-based
pKi: −log10 of the molar value.
measured-endpoint: pKi

In [3]: df
Out[3]:
                                    molecule                               measured_on  experimental_value
 0  CCCCCN1CC[C@@](C)(c2cccc(O)c2)[C@@H](C)C1  Mu-type opioid receptor (Rattus norvegicus)                8.37
 1  C[C@@H]1CN(CCC(=O)c2ccccc2)CC[C@]1(C)c1cccc(O)c1  Mu-type opioid receptor (Rattus norvegicus)                7.92
 2  C=CCN1CC[C@@](C)(c2cccc(O)c2)[C@@H](C)C1  Mu-type opioid receptor (Rattus norvegicus)                7.80
 3  C[C@H]1CN(CCC(O)c2ccccc2)CC[C@@]1(C)c1cccc(O)c1 (stereo partly specified)  Mu-type opioid receptor (Rattus norvegicus)                9.02
 4  C[C@@H]1CN(CCCc2cccs2)CC[C@]1(C)c1cccc(O)c1  Mu-type opioid receptor (Rattus norvegicus)                8.74
 5  C[C@H]1CN(CCc2ccccc2Cl)CC[C@@]1(C)c1cccc(O)c1  Mu-type opioid receptor (Rattus norvegicus)                8.46
 6  C[C@H]1CN(CCOc2ccccc2)CC[C@@]1(C)c1cccc(O)c1  Mu-type opioid receptor (Rattus norvegicus)                8.89
 7  C[C@H]1CN(CCCc2ccco2)CC[C@@]1(C)c1cccc(O)c1  Mu-type opioid receptor (Rattus norvegicus)                8.85
 8  C[C@H]1CN(CCc2cccs2)CC[C@@]1(C)c1cccc(O)c1  Mu-type opioid receptor (Rattus norvegicus)                8.28
 9  C[C@H]1CN(CCc2cccc(Cl)c2)CC[C@@]1(C)c1cccc(O)c1  Mu-type opioid receptor (Rattus norvegicus)                9.52
10  Cc1cccc(CCCN2CC[C@@](C)(c3cccc(O)c3)[C@@H](C)C2)c1  Mu-type opioid receptor (Rattus norvegicus)                8.55
